Cited source for all entries: ChEMBL document CHEMBL5360654

- TARGET ENTITY: Sigma non-opioid intracellular receptor 1 (Cavia porcellus)
- ASSAY METHOD TEXT: Displacement of [3H]-(+)-pentazocine from sigma1 receptor in guinea pig brain membrane assessed as inhibition constant measured after 120 mins by scintillation counting method
Record form. Attribute: pKi. Fill in for each entry.
Lab note — pKi values are minus log10 of concentrations in M.

Entry OC(CCN1CCC(Cc2ccccc2F)CC1)c1ccc2[nH]ncc2c1 (stereo unspecified) — recorded pKi = 6.65

Entry OC(CCN1CCC(Cc2ccccc2)CC1)c1ccc2[nH]ncc2c1 (stereo unspecified) — recorded pKi = 7.26

Entry O[C@H](CCN1CCC(Cc2ccccc2)CC1)c1ccc2[nH]ncc2c1 — recorded pKi = 7.24

Entry O=C(CCN1CCC(Cc2ccccc2)CC1)c1ccc2[nH]ncc2c1 — recorded pKi = 8.06

Entry C(#Cc1ccc2cn[nH]c2c1)CN1CCC(Cc2ccccc2)CC1 — recorded pKi = 7.92

Entry c1ccc(CC2CCN(CCCc3ccc4[nH]ncc4c3)CC2)cc1 — recorded pKi = 8.12

Entry Fc1ccc(CC2CCN(CC#Cc3ccc4[nH]ncc4c3)CC2)cc1 — recorded pKi = 8.18

Entry Cn1cc2cc(C#CCN3CCC(Cc4ccccc4)CC3)ccc2n1 — recorded pKi = 7.64

Entry Fc1ccc(CC2CCN(C/C=C/c3ccc4[nH]ncc4c3)CC2)cc1 — recorded pKi = 8.00

Entry OC(CCN1CCC(Cc2ccc(F)cc2)CC1)c1ccc2[nH]ncc2c1 (stereo unspecified) — recorded pKi = 7.92

Entry Fc1ccc(CC2CCN(CC#Cc3ccc4cn[nH]c4c3)CC2)cc1 — recorded pKi = 7.59

* * *

Record form. Attribute: pKi. Fill in for each entry.
- TARGET ENTITY: Sigma intracellular receptor 2 (Rattus norvegicus, UniProt Q5U3Y7)
- Sequence (Q5U3Y7 whole entry): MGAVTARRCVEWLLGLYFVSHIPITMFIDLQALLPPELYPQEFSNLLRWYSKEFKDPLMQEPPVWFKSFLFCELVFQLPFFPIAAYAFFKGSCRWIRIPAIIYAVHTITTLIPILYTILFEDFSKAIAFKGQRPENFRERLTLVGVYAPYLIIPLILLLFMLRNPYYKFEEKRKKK
- ASSAY METHOD TEXT: Displacement of [3H]di-o-tolylguanidine from sigma2 receptor in rat liver membrane assessed as inhibition constant measured after 120 mins by scintillation counting method
Lab note — pKi values are minus log10 of concentrations in M.

Entry Fc1ccc(CC2CCN(CC#Cc3ccc4cn[nH]c4c3)CC2)cc1 — recorded pKi = 6.07

Entry O[C@H](CCN1CCC(Cc2ccccc2)CC1)c1ccc2[nH]ncc2c1 — recorded pKi = 6.62

Entry C(#Cc1ccc2[nH]ncc2c1)CN1CCC(Cc2ccccc2)CC1 — recorded pKi = 7.96

Entry Cn1cc2cc(C#CCN3CCC(Cc4ccccc4)CC3)ccc2n1 — recorded pKi = 7.20

Entry Cn1ncc2cc(C#CCN3CCC(Cc4ccc(F)cc4)CC3)ccc21 — recorded pKi = 7.20

Entry O=C(CCN1CCC(Cc2ccc(F)cc2)CC1)c1ccc2[nH]ncc2c1 — recorded pKi = 7.29

* * *

- TARGET ENTITY: Glutamate receptor ionotropic, NMDA 2B (Homo sapiens, UniProt Q05586+Q13224)
- Sequence (Q13224 whole entry, one chain of several): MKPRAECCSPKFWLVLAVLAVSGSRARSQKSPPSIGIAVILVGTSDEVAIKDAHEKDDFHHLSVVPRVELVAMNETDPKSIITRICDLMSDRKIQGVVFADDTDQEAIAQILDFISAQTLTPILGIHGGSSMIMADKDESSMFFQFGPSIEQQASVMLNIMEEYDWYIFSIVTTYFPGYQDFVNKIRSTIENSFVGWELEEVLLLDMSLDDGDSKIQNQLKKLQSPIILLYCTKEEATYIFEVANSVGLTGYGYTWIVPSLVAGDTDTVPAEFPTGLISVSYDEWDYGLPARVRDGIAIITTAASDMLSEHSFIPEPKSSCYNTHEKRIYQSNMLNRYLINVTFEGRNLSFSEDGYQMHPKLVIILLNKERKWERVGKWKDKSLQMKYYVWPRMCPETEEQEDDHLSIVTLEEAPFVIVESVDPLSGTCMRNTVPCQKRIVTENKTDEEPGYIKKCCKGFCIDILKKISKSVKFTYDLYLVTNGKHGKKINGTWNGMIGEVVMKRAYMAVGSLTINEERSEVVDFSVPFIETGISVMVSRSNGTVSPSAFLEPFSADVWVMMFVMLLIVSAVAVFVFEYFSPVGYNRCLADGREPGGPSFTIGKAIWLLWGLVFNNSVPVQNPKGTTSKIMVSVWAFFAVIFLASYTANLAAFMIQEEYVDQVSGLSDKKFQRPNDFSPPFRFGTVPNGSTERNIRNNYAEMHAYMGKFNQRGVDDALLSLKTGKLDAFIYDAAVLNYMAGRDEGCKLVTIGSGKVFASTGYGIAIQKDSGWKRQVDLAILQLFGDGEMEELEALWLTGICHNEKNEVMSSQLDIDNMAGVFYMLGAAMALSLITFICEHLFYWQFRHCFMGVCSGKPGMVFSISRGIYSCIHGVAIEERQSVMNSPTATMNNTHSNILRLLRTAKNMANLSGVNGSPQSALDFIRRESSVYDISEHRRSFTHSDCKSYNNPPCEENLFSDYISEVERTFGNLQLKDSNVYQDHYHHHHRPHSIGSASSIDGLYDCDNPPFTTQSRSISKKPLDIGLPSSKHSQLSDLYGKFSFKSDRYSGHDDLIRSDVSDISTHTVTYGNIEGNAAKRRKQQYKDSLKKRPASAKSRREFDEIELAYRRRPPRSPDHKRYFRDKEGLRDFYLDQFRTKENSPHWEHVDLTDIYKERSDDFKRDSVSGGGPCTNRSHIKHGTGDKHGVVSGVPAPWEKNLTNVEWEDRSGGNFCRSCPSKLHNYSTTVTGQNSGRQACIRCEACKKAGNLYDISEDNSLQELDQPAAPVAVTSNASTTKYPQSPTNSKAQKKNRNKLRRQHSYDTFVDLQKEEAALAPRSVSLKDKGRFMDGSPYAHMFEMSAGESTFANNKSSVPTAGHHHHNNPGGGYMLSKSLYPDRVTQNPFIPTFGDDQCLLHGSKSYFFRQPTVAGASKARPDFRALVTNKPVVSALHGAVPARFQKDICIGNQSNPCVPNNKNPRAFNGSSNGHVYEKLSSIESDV
- ASSAY METHOD TEXT: Displacement of [3H]ifenprodil from human GluN2B expressed in mouse L-M(TK-) cell membrane coexpressing GluN1a assessed as inhibition constant measured after 120 mins by competitive binding assay
Record form. Attribute: Ki. Fill in for each entry.
Respond with the bare value in µM.

Entry c1ccc(CC2CCN(CCCc3ccc4[nH]ncc4c3)CC2)cc1 — recorded Ki = 0.0057

Entry O=C(CCN1CCC(Cc2ccc(F)cc2)CC1)c1ccc2[nH]ncc2c1 — recorded Ki = 0.056

Entry O=C(CCN1CCC(Cc2ccccc2F)CC1)c1ccc2[nH]ncc2c1 — recorded Ki = 0.02

Entry C(=C\c1ccc2[nH]ncc2c1)/CN1CCC(Cc2ccccc2)CC1 — recorded Ki = 0.0066

Entry O=C(CCN1CCC(Cc2ccccc2)CC1)c1ccc2[nH]ncc2c1 — recorded Ki = 0.018

Entry OC(CCN1CCC(Cc2ccccc2F)CC1)c1ccc2[nH]ncc2c1 (stereo not drawn) — recorded Ki = 0.038

Entry Oc1ccc(C#CCN2CCC(Cc3ccc(F)cc3)CC2)cc1 — recorded Ki = 0.012

Entry Cn1cc2cc(C#CCN3CCC(Cc4ccccc4)CC3)ccc2n1 — recorded Ki = 0.136

Entry Cn1ncc2cc(C#CCN3CCC(Cc4ccccc4)CC3)ccc21 — recorded Ki = 0.038

Entry Fc1ccc(CC2CCN(CCCc3ccc4[nH]ncc4c3)CC2)cc1 — recorded Ki = 0.013

Entry O[C@H](CCN1CCC(Cc2ccccc2)CC1)c1ccc2[nH]ncc2c1 — recorded Ki = 0.265

Entry Cn1cc2cc(C#CCN3CCC(Cc4ccc(F)cc4)CC3)ccc2n1 — recorded Ki = 0.182

Entry C(#Cc1ccc2[nH]ncc2c1)CN1CCC(Cc2ccccc2)CC1 — recorded Ki = 0.011

Entry Cn1ncc2cc(C#CCN3CCC(Cc4ccc(F)cc4)CC3)ccc21 — recorded Ki = 0.029

Entry Fc1ccc(CC2CCN(CC#Cc3ccc4[nH]ncc4c3)CC2)cc1 — recorded Ki = 0.013

Entry Fc1ccc(CC2CCN(C/C=C/c3ccc4[nH]ncc4c3)CC2)cc1 — recorded Ki = 0.02

Entry Fc1ccc(CC2CCN(C/C=C\c3ccc4[nH]ncc4c3)CC2)cc1 — recorded Ki = 0.042

Entry OC(CCN1CCC(Cc2ccccc2)CC1)c1ccc2[nH]ncc2c1 (stereo not drawn) — recorded Ki = 0.038

* * *

- TARGET ENTITY: Sigma non-opioid intracellular receptor 1 (Cavia porcellus, UniProt Q60492)
- Sequence (Q60492 whole entry): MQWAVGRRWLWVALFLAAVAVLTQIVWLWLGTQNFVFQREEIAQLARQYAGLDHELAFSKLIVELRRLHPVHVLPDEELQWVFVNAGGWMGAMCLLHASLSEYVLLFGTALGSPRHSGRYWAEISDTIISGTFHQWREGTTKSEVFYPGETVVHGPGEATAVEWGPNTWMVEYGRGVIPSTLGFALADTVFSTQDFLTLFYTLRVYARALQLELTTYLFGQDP
- ASSAY METHOD TEXT: Displacement of [3H]-(+)-pentazocine from sigma1 receptor in guinea pig brain membrane assessed as inhibition constant measured after 120 mins by scintillation counting method
READOUT KIND: pKi
Lab note — pKi values are minus log10 of concentrations in M.

Entry Cn1cc2cc(C#CCN3CCC(Cc4ccc(F)cc4)CC3)ccc2n1 — recorded pKi = 7.49

Entry Cn1ncc2cc(C#CCN3CCC(Cc4ccc(F)cc4)CC3)ccc21 — recorded pKi = 7.40

Entry O[C@@H](CCN1CCC(Cc2ccccc2)CC1)c1ccc2[nH]ncc2c1 — recorded pKi = 7.07

Entry Oc1ccc(C#CCN2CCC(Cc3ccc(F)cc3)CC2)cc1 — recorded pKi = 7.44

Entry C(=C/c1ccc2[nH]ncc2c1)/CN1CCC(Cc2ccccc2)CC1 — recorded pKi = 6.25

Entry O=C(CCN1CCC(Cc2ccccc2F)CC1)c1ccc2[nH]ncc2c1 — recorded pKi = 7.77

* * *

- TARGET ENTITY: Sigma intracellular receptor 2 (Rattus norvegicus, UniProt Q5U3Y7)
- ASSAY METHOD TEXT: Displacement of [3H]di-o-tolylguanidine from sigma2 receptor in rat liver membrane assessed as inhibition constant measured after 120 mins by scintillation counting method
READOUT KIND: pKi
Lab note — pKi values are minus log10 of concentrations in M.

Entry O=C(CCN1CCC(Cc2ccccc2F)CC1)c1ccc2[nH]ncc2c1 — recorded pKi = 7.72

Entry OC(CCN1CCC(Cc2ccc(F)cc2)CC1)c1ccc2[nH]ncc2c1 (stereo not drawn) — recorded pKi = 7.74

Entry O=C(CCN1CCC(Cc2ccccc2)CC1)c1ccc2[nH]ncc2c1 — recorded pKi = 7.74

Entry Fc1ccc(CC2CCN(CCCc3ccc4[nH]ncc4c3)CC2)cc1 — recorded pKi = 7.85

Entry Cn1ncc2cc(C#CCN3CCC(Cc4ccccc4)CC3)ccc21 — recorded pKi = 6.49

Entry Oc1ccc(C#CCN2CCC(Cc3ccc(F)cc3)CC2)cc1 — recorded pKi = 7.43

Entry Fc1ccc(CC2CCN(CC#Cc3ccc4[nH]ncc4c3)CC2)cc1 — recorded pKi = 7.89

Entry C(=C/c1ccc2[nH]ncc2c1)/CN1CCC(Cc2ccccc2)CC1 — recorded pKi = 6.87

Entry Fc1ccc(CC2CCN(C/C=C/c3ccc4[nH]ncc4c3)CC2)cc1 — recorded pKi = 7.43

Entry Cn1cc2cc(C#CCN3CCC(Cc4ccc(F)cc4)CC3)ccc2n1 — recorded pKi = 6.82

Entry OC(CCN1CCC(Cc2ccccc2F)CC1)c1ccc2[nH]ncc2c1 (stereo not drawn) — recorded pKi = 6.92

Entry Fc1ccccc1CC1CCN(CC#Cc2ccc3[nH]ncc3c2)CC1 — recorded pKi = 7.51

Entry C(#Cc1ccc2cn[nH]c2c1)CN1CCC(Cc2ccccc2)CC1 — recorded pKi = 6.28

Entry OC(CCN1CCC(Cc2ccccc2)CC1)c1ccc2[nH]ncc2c1 (stereo not drawn) — recorded pKi = 7.06

Entry Fc1ccc(CC2CCN(C/C=C\c3ccc4[nH]ncc4c3)CC2)cc1 — recorded pKi = 7.01

Entry C(=C\c1ccc2[nH]ncc2c1)/CN1CCC(Cc2ccccc2)CC1 — recorded pKi = 8.00

Entry c1ccc(CC2CCN(CCCc3ccc4[nH]ncc4c3)CC2)cc1 — recorded pKi = 7.92

Entry O[C@@H](CCN1CCC(Cc2ccccc2)CC1)c1ccc2[nH]ncc2c1 — recorded pKi = 6.91
